experimental target: Nucleic Acid
method: Binding affinity to HIV1 TAR RNA U3 bulge mutant at pH 6.8 by ethidium bromide displacement assay
Assay type: nucleic-acid assay, Human immunodeficiency virus 1
Please provide measured IC50 for the entries that follow.
Give bare numbers, in nM.

Example results:
smiles data	measurement type	value unit	recorded result
NC[C@@H]1O[C@H](O[C@H]2[C@@H](O)[C@H](O[C@@H]3[C@@H](O)[C@H](N)C[C@H](N)[C@H]3O[C@H]3O[C@H](CN)[C@@H](O)[C@H](O)[C@H]3N)O[C@@H]2Cn2cc(CCCCc3cn(C[C@H]4O[C@@H](O[C@@H]5[C@@H](O)[C@H](N)C[C@H](N)[C@H]5O[C@H]5O[C@H](CN)[C@@H](O)[C@H](O)[C@H]5N)[C@H](O)[C@@H]4O[C@H]4O[C@@H](CN)[C@@H](O)[C@H](O)[C@H]4N)nn3)nn2)[C@H](N)[C@@H](O)[C@@H]1O	IC50	nM	278
NC[C@@H]1O[C@H](O[C@H]2[C@@H](O)[C@H](O[C@@H]3[C@@H](O)[C@H](N)C[C@H](N)[C@H]3O[C@H]3O[C@H](CN)[C@@H](O)[C@H](O)[C@H]3N)O[C@@H]2Cn2cc(-c3cccc(-c4cn(C[C@H]5O[C@@H](O[C@@H]6[C@@H](O)[C@H](N)C[C@H](N)[C@H]6O[C@H]6O[C@H](CN)[C@@H](O)[C@H](O)[C@H]6N)[C@H](O)[C@@H]5O[C@H]5O[C@@H](CN)[C@@H](O)[C@H](O)[C@H]5N)nn4)c3)nn2)[C@H](N)[C@@H](O)[C@@H]1O	IC50	nM	244
NC[C@@H]1O[C@H](O[C@H]2[C@@H](O)[C@H](O[C@@H]3[C@@H](O)[C@H](N)C[C@H](N)[C@H]3O[C@H]3O[C@H](CN)[C@@H](O)[C@H](O)[C@H]3N)O[C@@H]2Cn2cc(CCCCCCc3cn(C[C@H]4O[C@@H](O[C@@H]5[C@@H](O)[C@H](N)C[C@H](N)[C@H]5O[C@H]5O[C@H](CN)[C@@H](O)[C@H](O)[C@H]5N)[C@H](O)[C@@H]4O[C@H]4O[C@@H](CN)[C@@H](O)[C@H](O)[C@H]4N)nn3)nn2)[C@H](N)[C@@H](O)[C@@H]1O	IC50	nM	256

With those in mind, consider the next compound.
What the record says about `NC[C@@H]1O[C@H](O[C@H]2[C@@H](O)[C@H](O[C@@H]3[C@@H](O)[C@H](N)C[C@H](N)[C@H]3O[C@H]3O[C@H](CN)[C@@H](O)[C@H](O)[C@H]3N)O[C@@H]2Cn2cc(COCCCCCCCCCCCCOCc3cn(C[C@H]4O[C@@H](O[C@@H]5[C@@H](O)[C@H](N)C[C@H](N)[C@H]5O[C@H]5O[C@H](CN)[C@@H](O)[C@H](O)[C@H]5N)[C@H](O)[C@@H]4O[C@H]4O[C@@H](CN)[C@@H](O)[C@H](O)[C@H]4N)nn3)nn2)[C@H](N)[C@@H](O)[C@@H]1O` : IC50 is 326

---

Tested on: Nucleic Acid
method: Binding affinity to HIV1 TAR RNA tetraloop mutant assessed as association constant at pH 6.8 by ethidium bromide displacement assay based Scatchard analysis method
Format: nucleic-acid assay
experimental conditions: Human immunodeficiency virus 1
measurement type: K (×10⁷ /M)
Numbers only, in ×10⁷ /M.

smiles data	experimental target	recorded result
NC[C@@H]1O[C@H](O[C@H]2[C@@H](O)[C@H](O[C@@H]3[C@@H](O)[C@H](N)C[C@H](N)[C@H]3O[C@H]3O[C@H](CN)[C@@H](O)[C@H](O)[C@H]3N)O[C@@H]2Cn2cc(COCCCCCCCCOCc3cn(C[C@H]4O[C@@H](O[C@@H]5[C@@H](O)[C@H](N)C[C@H](N)[C@H]5O[C@H]5O[C@H](CN)[C@@H](O)[C@H](O)[C@H]5N)[C@H](O)[C@@H]4O[C@H]4O[C@@H](CN)[C@@H](O)[C@H](O)[C@H]4N)nn3)nn2)[C@H](N)[C@@H](O)[C@@H]1O	Nucleic Acid	1.4

What the record says about `NC[C@@H]1O[C@H](O[C@H]2[C@@H](O)[C@H](O[C@@H]3[C@@H](O)[C@H](N)C[C@H](N)[C@H]3O[C@H]3O[C@H](CN)[C@@H](O)[C@H](O)[C@H]3N)O[C@@H]2Cn2cc(COCc3cn(C[C@H]4O[C@@H](O[C@@H]5[C@@H](O)[C@H](N)C[C@H](N)[C@H]5O[C@H]5O[C@H](CN)[C@@H](O)[C@H](O)[C@H]5N)[C@H](O)[C@@H]4O[C@H]4O[C@@H](CN)[C@@H](O)[C@H](O)[C@H]4N)nn3)nn2)[C@H](N)[C@@H](O)[C@@H]1O` : K is 2.7

---

experimental target: Nucleic Acid
method: Binding affinity to HIV1 TAR RNA bulgeless mutant at pH 6.8 by ethidium bromide displacement assay
Assay type: nucleic-acid assay, Human immunodeficiency virus 1
measurement type: pIC50
Answers are plain numbers, as −log10 of the molar value.

What the record says about `NC[C@@H]1O[C@H](O[C@H]2[C@@H](O)[C@H](O[C@@H]3[C@@H](O)[C@H](N)C[C@H](N)[C@H]3O[C@H]3O[C@H](CN)[C@@H](O)[C@H](O)[C@H]3N)O[C@@H]2Cn2cc(CCCc3cn(C[C@H]4O[C@@H](O[C@@H]5[C@@H](O)[C@H](N)C[C@H](N)[C@H]5O[C@H]5O[C@H](CN)[C@@H](O)[C@H](O)[C@H]5N)[C@H](O)[C@@H]4O[C@H]4O[C@@H](CN)[C@@H](O)[C@H](O)[C@H]4N)nn3)nn2)[C@H](N)[C@@H](O)[C@@H]1O` : pIC50 is 6.87

---

Please provide measured K for the entries that follow.
Test system: Nucleic Acid
method: Binding affinity to HIV1 TAR RNA bulgeless tetraloop mutant assessed as association constant at pH 6.8 by ethidium bromide displacement assay based Scatchard analysis method
Type: nucleic-acid assay
experimental conditions: Human immunodeficiency virus 1
Answers are plain numbers, in ×10⁷ /M.

smiles data	measurement type	value unit	recorded result
NC[C@@H]1O[C@H](O[C@H]2[C@@H](O)[C@H](O[C@@H]3[C@@H](O)[C@H](N)C[C@H](N)[C@H]3O[C@H]3O[C@H](CN)[C@@H](O)[C@H](O)[C@H]3N)O[C@@H]2Cn2cc(COCCCCCCCCCCCCOCc3cn(C[C@H]4O[C@@H](O[C@@H]5[C@@H](O)[C@H](N)C[C@H](N)[C@H]5O[C@H]5O[C@H](CN)[C@@H](O)[C@H](O)[C@H]5N)[C@H](O)[C@@H]4O[C@H]4O[C@@H](CN)[C@@H](O)[C@H](O)[C@H]4N)nn3)nn2)[C@H](N)[C@@H](O)[C@@H]1O	K	×10⁷ /M	2.7
NC[C@@H]1O[C@H](O[C@H]2[C@@H](O)[C@H](O[C@@H]3[C@@H](O)[C@H](N)C[C@H](N)[C@H]3O[C@H]3O[C@H](CN)[C@@H](O)[C@H](O)[C@H]3N)O[C@@H]2Cn2cc(COCCCCCCCCOCc3cn(C[C@H]4O[C@@H](O[C@@H]5[C@@H](O)[C@H](N)C[C@H](N)[C@H]5O[C@H]5O[C@H](CN)[C@@H](O)[C@H](O)[C@H]5N)[C@H](O)[C@@H]4O[C@H]4O[C@@H](CN)[C@@H](O)[C@H](O)[C@H]4N)nn3)nn2)[C@H](N)[C@@H](O)[C@@H]1O	K	×10⁷ /M	7.2

Quick batch: K for everything below.
1. NC[C@@H]1O[C@H](O[C@H]2[C@@H](O)[C@H](O[C@@H]3[C@@H](O)[C@H](N)C[C@H](N)[C@H]3O[C@H]3O[C@H](CN)[C@@H](O)[C@H](O)[C@H]3N)O[C@@H]2Cn2cc(CCCCCCc3cn(C[C@H]4O[C@@H](O[C@@H]5[C@@H](O)[C@H](N)C[C@H](N)[C@H]5O[C@H]5O[C@H](CN)[C@@H](O)[C@H](O)[C@H]5N)[C@H](O)[C@@H]4O[C@H]4O[C@@H](CN)[C@@H](O)[C@H](O)[C@H]4N)nn3)nn2)[C@H](N)[C@@H](O)[C@@H]1O
2. NC[C@@H]1O[C@H](O[C@H]2[C@@H](O)[C@H](O[C@@H]3[C@@H](O)[C@H](N)C[C@H](N)[C@H]3O[C@H]3O[C@H](CN)[C@@H](O)[C@H](O)[C@H]3N)O[C@@H]2CO)[C@H](N)[C@@H](O)[C@@H]1O
3. NC[C@@H]1O[C@H](O[C@H]2[C@@H](O)[C@H](O[C@@H]3[C@@H](O)[C@H](N)C[C@H](N)[C@H]3O[C@H]3O[C@H](CN)[C@@H](O)[C@H](O)[C@H]3N)O[C@@H]2Cn2cc(CCCCc3cn(C[C@H]4O[C@@H](O[C@@H]5[C@@H](O)[C@H](N)C[C@H](N)[C@H]5O[C@H]5O[C@H](CN)[C@@H](O)[C@H](O)[C@H]5N)[C@H](O)[C@@H]4O[C@H]4O[C@@H](CN)[C@@H](O)[C@H](O)[C@H]4N)nn3)nn2)[C@H](N)[C@@H](O)[C@@H]1O

[out]
1: 5.9; 2: 1.6; 3: 1.2
